Where these numbers come from: the supplement of paper PMC9732359

experiment: protein stability index of a GFP-peptide fusion (yeast GPS) (PSI 1-4); higher = more stable; sorted into four equal gates, so the index is relative within each strain; settings: ubr1∆
Label fulfilled when protein stability index >= 3; otherwise not fulfilled.

sequence-content	label-class
KHVGFELLSMGNAKESK [SRP72]	fulfilled

Decide: is the reported value of protein stability index for ELTKNPNSNVELAGGNA [SMC1] equal to or greater than 3?
fulfilled

Form field: protein stability index at least 3? Entry: GKLWKDVKARIAAGDGD [QCR9]
not fulfilled

###

assay: protein stability index of a GFP-peptide fusion (yeast GPS) (PSI 1-4); higher = more stable; sorted into four equal gates, so the index is relative within each strain; conditions: pdr5∆
Label scheme for protein stability index: lower than 3 is false (0), 3 and above is true (1).

Some solved entries appear below for comparison.
sequence-content	label-class
YPDFRHYGLAVDIYTHF [DIS3]	false (0)
NSQLVGKPHFSLLGGFD [PCI8]	false (0)
PQAILAKNSIIDSSNLP [SWI1]	false (0)
RALRIETGNFSWASEGI [RPS8A]	true (1)
GRDAFHLRVRVHPFHVL [RPL10]	false (0)

Check the entry LNQLDGFETSKNIKIIM [RPT6] : does protein stability index equal or exceed 3?
false (0)

Does ISTACPRLDDVVVDTVE [SMC4] have a reported protein stability index of at least 3?
true (1)

Hi team, for NGNKDSSFNFNKNLPFV [SWI1] , is the recorded protein stability index at or above 3?
true (1)

Evaluate TVWSANFEYDLSEYDAI [YOR098C/NUP1] : protein stability index at minimum 3?
true (1)

Check if protein stability index >= 3 (inclusive). Item: QTRKEYNTSILEFRWLT [SIN4]
false (0)

###

assay: protein stability index of a GFP-peptide fusion (yeast GPS) (PSI 1-4); higher = more stable; sorted into four equal gates, so the index is relative within each strain; settings: ubr1∆
Some sequences, each annotated with its measured protein stability index.
Form rule: numeric answer, no unit written next to it.

Please review the following examples before continuing.
sequence-content	protein stability index
NNKNNSITTGNDNENIV [MED2]	2.99
RSEKSTTNAQTKKLIQK [SRP54]	2.94
TFSYVDSSLQPEYFESP [YMR129W/POM152]	3.08

Consider now this further sequence.
Record summary for IAGTFNVGKPDQSIASG [YOR098C/NUP1] : reported protein stability index = 2.98

###

test: protein stability index of a GFP-peptide fusion (yeast GPS) (PSI 1-4); higher = more stable; sorted into four equal gates, so the index is relative within each strain; conditions: pdr5∆
Overview of recorded protein stability index for various sequences
Give only the figure.

Solved entries (count: 5):
sequence-content	result-number
FKVQELLHSKPSLLLQK [NAS6]	2.3
LHVVSKSSIEKDPSPEI [SIN4]	3.03
LTHVDLIEKFLRYNPLE [RPB10]	3.29
KHAEFDLSLLGYCDDIA [SIR2]	2.68
ETQYFWKLLNQLVLRGL [YJR042W/NUP85]	1.26

Please fill in: protein stability index reported for WSSEFAKWAPTLRTISF [SNF2] = 2.41

Record summary for PVGRELDPISLILIPGE [RPN13] : reported protein stability index = 2.56

For EVYEALKEVLYNDSATS [RPN2] the sequence record lists protein stability index as 3.45

Memo: DFYTRHHFTCEITGTSC [ITC1] , reported protein stability index: 1.64

# sequence MREITETIAEAKKKVLD [RPO21] ; its protein stability index = 3.42

// PYAIIKGKARLGTLVNQ [RPL8B] : protein stability index value = 1.99

###

assay: protein stability index of a GFP-peptide fusion (yeast GPS) (PSI 1-4); higher = more stable; sorted into four equal gates, so the index is relative within each strain; conditions: ubr1∆
Catalogue of sequences with associated protein stability index
The reply should be a number, written without any unit.

Field: example entries. Status: answers known.
sequence-content	protein stability index
GSVIQTHIAESAKEIAK [MCD1]	3.06
PSENLLNIRIQTYGETT [RPC19]	1.33
VTEANIIKLVEGLANDP [RPS12]	2.73
AELKLAGEFGLKNKREI [RPS9B]	3.21

Briefly, protein stability index measured for GSAELRNSYPASFYSVN [RPN3] : 3.55

// recorded protein stability index for KVKKPLKYLSVEEVIKL [PRE7] : 2.23

Per the record, ANIFRIHSKSMSVERGI [RPT1] has protein stability index of 2.9

protein stability index reading for KTVAVDSVFEQNEMIDA [RPL3] : 2.51

# protein stability index (sequence: DILLCYQKLFSQFINDH [SRB8] ) is 1.84

The reported value for VLTRMDEDRSKKEEELG [SNF2] in terms of protein stability index is 3.27

###

assay: protein stability index of a GFP-peptide fusion (yeast GPS) (PSI 1-4); higher = more stable; sorted into four equal gates, so the index is relative within each strain; details: pdr5∆
protein stability index overview

Examples with their reported protein stability index follow.
sequence-content	result
RGNIKVMFATNRPNTLD [RPT1]	3.05
YDSDSDSSVEDSTDNEN [LIN1]	2.95

Next, consider the following sequence.
For this sequence ( KEVASLPNKSTISKTVS [FAS2] ), measured protein stability index is 3.05

###

experiment: protein stability index of a GFP-peptide fusion (yeast GPS) (PSI 1-4); higher = more stable; sorted into four equal gates, so the index is relative within each strain; details: ubr1∆
Short version: protein stability index at least 3 is T, less is F.

sequence-content	label-class
VTLDITTLTIMRILPRE [RPT4]	F
GQSSVKHEDFVEGISEV [RPT5]	T
VLSSVREPDFWVIRKQR [MED6]	T
VKARHGGCDYIFSLLTG [CYT1]	F
KDEETTEKARLIDFEYV [RRI2]	T
LVDVMTTQGGLTSVTRH [RPO21]	F
LALMTAHSLSPKDYIKK [CDC53]	T
LNFSTTAPANTTDANGS [MED2]	F

Next:
Textbook exercise: given the entry SLHILMIFWNDICQIDT [SRB8] , state whether its protein stability index is greater than or equal to 3.
F
